biological target: EPHB1 (UniProt P54762); assay: phosphorylation enrichment, bacterial display (enrichment ratio); higher = better substrate or ligand; peptides without Tyr show the background;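 note: 11-residue human phosphosite peptides and single-mutation variants displayed on the E. coli surface, counted by deep sequencing, each peptide's frequency after selection divided by its frequency in the unselected input library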;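 note: frequency after pTyr selection over input frequency; kinase dosed for 20-30% of maximal phosphorylation in three min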
Sequence (P54762 whole entry, looked up): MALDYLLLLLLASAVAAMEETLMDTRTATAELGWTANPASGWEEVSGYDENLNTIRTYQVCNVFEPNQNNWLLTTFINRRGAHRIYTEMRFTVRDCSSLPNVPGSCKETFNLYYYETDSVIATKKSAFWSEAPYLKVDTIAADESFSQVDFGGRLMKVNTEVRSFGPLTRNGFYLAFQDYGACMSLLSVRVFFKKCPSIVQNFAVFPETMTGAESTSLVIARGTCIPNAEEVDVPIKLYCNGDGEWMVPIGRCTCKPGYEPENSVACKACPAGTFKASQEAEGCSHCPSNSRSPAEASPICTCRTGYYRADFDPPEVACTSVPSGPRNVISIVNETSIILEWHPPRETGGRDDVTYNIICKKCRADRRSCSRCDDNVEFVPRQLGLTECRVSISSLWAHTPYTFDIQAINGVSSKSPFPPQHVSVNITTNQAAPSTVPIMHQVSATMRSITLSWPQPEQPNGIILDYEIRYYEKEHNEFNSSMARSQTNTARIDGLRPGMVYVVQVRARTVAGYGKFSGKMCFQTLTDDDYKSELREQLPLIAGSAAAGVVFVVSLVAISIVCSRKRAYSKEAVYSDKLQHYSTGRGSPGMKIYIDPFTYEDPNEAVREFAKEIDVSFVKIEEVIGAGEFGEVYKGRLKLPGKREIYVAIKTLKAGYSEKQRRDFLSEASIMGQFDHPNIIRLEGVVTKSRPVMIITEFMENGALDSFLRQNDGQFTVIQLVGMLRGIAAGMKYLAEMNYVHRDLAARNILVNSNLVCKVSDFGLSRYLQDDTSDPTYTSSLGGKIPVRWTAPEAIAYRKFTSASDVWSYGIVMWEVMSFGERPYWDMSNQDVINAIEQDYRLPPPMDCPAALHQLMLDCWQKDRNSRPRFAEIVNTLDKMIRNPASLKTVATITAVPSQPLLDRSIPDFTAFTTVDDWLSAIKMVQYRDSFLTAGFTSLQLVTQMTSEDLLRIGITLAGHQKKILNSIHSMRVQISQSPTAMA
measured-quantity: phosphorylation enrichment
Answer field: number only, no words.

Worked cases, phosphorylation enrichment given:
macromolecule-sequence	phosphorylation enrichment
ALEKTYNTFRS [B4GALNT2_Y538_YF]	0.351
ETLLYYGYRRS [POR_Y564_C566Y]	1.21
LPHVIYCRLWR [SMAD2_Y128]	1.76

Respond only with phosphorylation enrichment recorded for LAIERYVVVCK [RHO_Y136] 0.938

Quickly give me recorded phosphorylation enrichment for SEDSEYYKAFE [CASQ2_Y178] 0.656

Item FEDTLYTVLHR [UNC13D_Y61_A59T_YF] : provide phosphorylation enrichment 9.72

Output phosphorylation enrichment of KKFPDYIQIAM [SGMS2_Y59_YF] 4.26

Consider the sequence SSSNPYSTVTV [ACTN2_Y599_M604V] . State its measured phosphorylation enrichment. 0.342

---

Reported phosphorylation enrichment values are given for each entry in this list.
tested on: AncSZ; assay: phosphorylation enrichment, bacterial display (enrichment ratio); higher = better substrate or ligand; peptides without Tyr show the background

macromolecule-sequence	system-name	phosphorylation enrichment
RAFRRYLLKQK [SCN2A_Y1919_YF]	AncSZ	0.708

Read the next record carefully.
Specify reported phosphorylation enrichment for the sequence shown: HSFNSYTFPRL [PAK5_Y316_YF] 1.78

---

A collection of sequences and their measured phosphorylation enrichment
target: Fyn (UniProt P06241); assay: phosphorylation enrichment, bacterial display (enrichment ratio); higher = better substrate or ligand; peptides without Tyr show the background
Sequence (P06241 whole entry, looked up): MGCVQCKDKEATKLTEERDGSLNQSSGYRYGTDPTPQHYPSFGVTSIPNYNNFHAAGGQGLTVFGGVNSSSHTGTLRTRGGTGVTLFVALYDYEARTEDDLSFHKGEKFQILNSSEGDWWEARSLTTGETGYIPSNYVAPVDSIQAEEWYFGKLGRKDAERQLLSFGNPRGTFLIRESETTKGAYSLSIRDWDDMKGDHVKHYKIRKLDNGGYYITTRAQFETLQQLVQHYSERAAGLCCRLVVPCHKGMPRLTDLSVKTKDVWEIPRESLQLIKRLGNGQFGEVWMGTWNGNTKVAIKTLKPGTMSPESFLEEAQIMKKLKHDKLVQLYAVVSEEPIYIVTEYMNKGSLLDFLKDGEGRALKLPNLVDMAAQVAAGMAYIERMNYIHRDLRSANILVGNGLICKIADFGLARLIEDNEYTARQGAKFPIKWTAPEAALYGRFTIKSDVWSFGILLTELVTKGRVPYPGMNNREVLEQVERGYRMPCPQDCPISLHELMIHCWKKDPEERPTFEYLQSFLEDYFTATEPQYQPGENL
Reply with just the number.

macromolecule-sequence	phosphorylation enrichment
KMKGDYFRSLA [YWHAG_Y130_Y133S_YF]	0.399
GQAPGYSYTAA [CYCS_Y47]	0.471
YIATQYSLCPR [LBR_Y166_R169C]	0.67

In one line, give reported phosphorylation enrichment of the entry VTRLRYPVCFG [ITK_Y336] . 0.453

Answer with the recorded phosphorylation enrichment of EFGEVYKGTLK [EPHA2_Y628_M631T] only. 0.373

Please give measured phosphorylation enrichment of the following entry: FDNPIYQKTTE [LDLR_Y828_V827I] 1.1

Give recorded phosphorylation enrichment. CTTIQYNYMCN [TP53_Y234_H233Q] 0.555

Retrieve phosphorylation enrichment measured for GDPVQYNRTTD [MLPH_Y454] and print it. 0.412

Fill in reported phosphorylation enrichment for this entry: FRQLPYCPSVE [CTNND2_Y508_Q507P_YF] 0.538

Please look at this sequence and report its phosphorylation enrichment: ANKNVYEVEPT [MEGF10_Y1075_R1072K] 4.42

Give the reported phosphorylation enrichment for this sequence. EYQLPYYNTVP [BMPR1A_Y457_M460T] 1.42

Could you please provide reported phosphorylation enrichment for NELTFYCCKKD [CD59_Y87_YF] ? Thanks! 0.452

Fill in reported phosphorylation enrichment for this entry: VAMELYVFRGV [GAN_Y471_G474R] 0.503

Write down phosphorylation enrichment measured for item LSTPEYGPKLK [TBC1D14_Y46_A43T] 0.527

State its phosphorylation enrichment: IHFAIYFLKFS [ARMC9_Y107_L108F_YF] 0.448

State, in one line, measured phosphorylation enrichment of GPKSTYISSAA [GOLGA5_Y62] 0.467

Let me know recorded phosphorylation enrichment for VGNAAYQAGSL [STK36_Y1181_P1185S] , thanks. 0.401

In one line, give reported phosphorylation enrichment of the entry YIGVTYKNKED [PDGFRA_Y993_E996K] . 0.505

Answer with the recorded phosphorylation enrichment for the sequence listed here: PLDGEYLTLQI [TP53_Y327_F328L] 1.08

Specify phosphorylation enrichment for PFTRNYFVWAV [CYBA_Y87_R90W_YF] and stop. 1.56

---

molecular target: Jak2 (UniProt O60674); test: phosphorylation enrichment, bacterial display (enrichment ratio); higher = better substrate or ligand; peptides without Tyr show the background
Sequence (O60674 whole entry, looked up): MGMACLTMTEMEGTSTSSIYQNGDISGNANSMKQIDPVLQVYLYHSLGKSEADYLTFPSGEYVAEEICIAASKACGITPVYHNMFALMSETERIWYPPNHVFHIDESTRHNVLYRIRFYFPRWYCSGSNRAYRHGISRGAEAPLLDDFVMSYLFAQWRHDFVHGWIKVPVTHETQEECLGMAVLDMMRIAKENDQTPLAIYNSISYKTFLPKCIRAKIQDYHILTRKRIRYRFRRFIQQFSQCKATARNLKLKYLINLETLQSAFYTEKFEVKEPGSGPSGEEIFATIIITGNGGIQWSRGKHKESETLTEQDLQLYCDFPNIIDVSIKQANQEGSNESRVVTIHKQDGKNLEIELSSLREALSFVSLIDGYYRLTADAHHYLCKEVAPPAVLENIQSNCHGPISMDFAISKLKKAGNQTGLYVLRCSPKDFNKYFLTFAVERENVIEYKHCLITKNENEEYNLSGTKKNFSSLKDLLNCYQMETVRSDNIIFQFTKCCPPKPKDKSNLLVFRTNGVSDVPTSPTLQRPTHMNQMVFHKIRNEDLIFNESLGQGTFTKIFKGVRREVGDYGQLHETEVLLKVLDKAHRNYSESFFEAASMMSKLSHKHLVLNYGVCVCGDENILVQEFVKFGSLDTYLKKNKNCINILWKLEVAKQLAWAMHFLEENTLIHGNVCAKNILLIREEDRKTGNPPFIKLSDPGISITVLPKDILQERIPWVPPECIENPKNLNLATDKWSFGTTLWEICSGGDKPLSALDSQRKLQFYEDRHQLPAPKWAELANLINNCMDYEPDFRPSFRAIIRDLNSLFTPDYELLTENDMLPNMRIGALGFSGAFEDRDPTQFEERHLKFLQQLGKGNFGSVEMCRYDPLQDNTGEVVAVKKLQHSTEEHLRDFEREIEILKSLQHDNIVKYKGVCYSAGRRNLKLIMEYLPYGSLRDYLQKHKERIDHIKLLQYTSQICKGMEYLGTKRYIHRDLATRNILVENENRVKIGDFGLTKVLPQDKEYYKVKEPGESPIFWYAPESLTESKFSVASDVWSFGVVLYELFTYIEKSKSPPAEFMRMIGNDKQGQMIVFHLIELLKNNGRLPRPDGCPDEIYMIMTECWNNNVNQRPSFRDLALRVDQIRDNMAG
Categories are assigned from the measured phosphorylation enrichment using these intervals: LOW = under 0.8, MID = from 0.8 up to 1, HIGH = 1 and over

Please review the following examples before continuing.
macromolecule-sequence	system-name	discrete-label
RLSVDYGKKSK [TUBA3E_Y161_S162G]	Jak2 (UniProt O60674)	MID
PPVVNYEQDAR [FER_Y402_E404Q]	Jak2 (UniProt O60674)	HIGH
QLLIKYPPEEV [ZZZ3_Y670]	Jak2 (UniProt O60674)	HIGH
KKYPDYIQIAR [SGMS2_Y59_M64R]	Jak2 (UniProt O60674)	HIGH
SDTGQYQCLVF [AXL_Y115]	Jak2 (UniProt O60674)	MID

# bin lookup: classify DAHFTYSRFPW [LY75_Y888_D884A_YF] by its phosphorylation enrichment HIGH

Which class does AEYGLYAAMVR [VSX2_Y222_G223A] fall in? HIGH

Consider PICEGYALPHA [ACTC1_Y171_Y168C] . To which phosphorylation enrichment class does it belong? LOW

Category of LPPGTYPSDFT [UNC5B_Y511_A516T] , please. LOW

Tag the class for EEEFEYMNRRR [ERBB3_Y1199_D1194E_YF] HIGH

---

test system: AncSZ; assay: phosphorylation enrichment, bacterial display (enrichment ratio); higher = better substrate or ligand; peptides without Tyr show the background
measured-quantity: phosphorylation enrichment
The answer should be written as a number, with no unit following it.

Some sequences with recorded phosphorylation enrichment:
macromolecule-sequence	phosphorylation enrichment
WQQQSYLDSVI [CTNNB1_Y30_G34V]	0.983
KKYPDYIQIAR [SGMS2_Y59_M64R]	0.98

Output phosphorylation enrichment of TAPFNYSFIFK [RAB14_Y8_YF] 0.975

---

Reported phosphorylation enrichment values for a set of sequences
molecular target: EPHB1 (UniProt P54762); assay: phosphorylation enrichment, bacterial display (enrichment ratio); higher = better substrate or ligand; peptides without Tyr show the background
Answer with the value's number alone.

Worked examples, 3 sequences total:
macromolecule-sequence	phosphorylation enrichment
LMIKEYLTKEL [BAG3_Y457_E455K]	0.524
KWELRYMHSRV [ABCD1_Y281_G277W]	0.517
GLCSYYETSKM [MAGED2_Y449_R446C]	1.67

With those in mind, consider the next sequence.
# lookup: EPHB1 (UniProt P54762) phosphorylation enrichment, key = LNSFIYSLRNR [OR1A1_Y288_P285S] 0.617

---

Quick list: phosphorylation enrichment per entry.
target: Fes (UniProt P07332); experiment: phosphorylation enrichment, bacterial display (enrichment ratio); higher = better substrate or ligand; peptides without Tyr show the background
Sequence (P07332 whole entry, looked up): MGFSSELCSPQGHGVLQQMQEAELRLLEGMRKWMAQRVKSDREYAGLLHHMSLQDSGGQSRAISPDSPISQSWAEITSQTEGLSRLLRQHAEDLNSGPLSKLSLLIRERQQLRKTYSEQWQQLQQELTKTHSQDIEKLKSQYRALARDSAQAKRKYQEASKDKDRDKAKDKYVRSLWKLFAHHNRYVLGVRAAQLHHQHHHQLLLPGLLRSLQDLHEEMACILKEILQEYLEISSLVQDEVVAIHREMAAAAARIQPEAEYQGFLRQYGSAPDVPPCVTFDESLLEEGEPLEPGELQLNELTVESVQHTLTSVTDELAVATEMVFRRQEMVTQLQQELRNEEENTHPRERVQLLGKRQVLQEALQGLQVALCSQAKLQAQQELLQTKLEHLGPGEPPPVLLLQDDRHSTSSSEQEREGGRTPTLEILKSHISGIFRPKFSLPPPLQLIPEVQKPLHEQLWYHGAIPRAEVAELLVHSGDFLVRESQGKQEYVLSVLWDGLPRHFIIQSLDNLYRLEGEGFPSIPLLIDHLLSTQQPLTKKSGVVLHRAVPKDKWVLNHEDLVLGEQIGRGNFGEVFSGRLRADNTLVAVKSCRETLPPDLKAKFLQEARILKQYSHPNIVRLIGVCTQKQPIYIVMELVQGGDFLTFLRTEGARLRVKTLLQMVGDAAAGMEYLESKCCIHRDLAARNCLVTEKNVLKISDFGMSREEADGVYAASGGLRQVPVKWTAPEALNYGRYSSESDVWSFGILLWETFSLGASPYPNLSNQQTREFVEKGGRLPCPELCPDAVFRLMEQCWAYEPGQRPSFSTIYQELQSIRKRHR
Answer using only a numeral; do not append any unit.

Example entries begin here.
macromolecule-sequence	phosphorylation enrichment
QDKDLYPCPGT [RLF_Y671_R668K]	1.18
QMVGMYAFSFM [AVPR2_Y124_S126F_YF]	1.65
EVVGRYSVHNA [MLH1_Y183]	0.717
KDFTKYVAYIE [KDM4B_Y31_N29T]	1.07
NGVSYYINLCQ [IGF2R_Y2025]	1.38

Input TAPFNYSFIFK [RAB14_Y8_YF] , output reported phosphorylation enrichment. 1.1

Consider the sequence EGNERYEGFCV [GRIA3_Y451_YF] . State its measured phosphorylation enrichment. 1.15

Annotate the sequence PFGQWYESHFA [RPS8_Y113_R110G_YF] with its measured phosphorylation enrichment. 1.43

Supply measured phosphorylation enrichment of TESALYGCTVV [KIAA1804_Y724_L729V] in your reply. 1.43

Answer with the recorded phosphorylation enrichment for the sequence listed here: ETPSEYLEIVR [TMEM130_Y412] 1.01

Let me know recorded phosphorylation enrichment for PLDGEYLTLQI [TP53_Y327_F328L] , thanks. 2.31

Give recorded phosphorylation enrichment. QEMMEYRRQIQ [DES_Y324_H326R] 0.92

Give the measured phosphorylation enrichment for RVFRDYVLKSA [HTATIP2_Y111_D108Y_YF] 1.15

For the sequence TKQLTYEEQFL [PIK3C3_Y310_D314Y_YF] , give its reported phosphorylation enrichment. 1.08

Please supply the value of reported phosphorylation enrichment for the item HCFAAYFQQGD [GPI_Y351_R347C] 2.51

State its phosphorylation enrichment for this sequence: ETKKQYNSFTY [TMED3_Y85_D86N] 0.753

---

target: Hck (UniProt P08631); test: phosphorylation enrichment, bacterial display (enrichment ratio); higher = better substrate or ligand; peptides without Tyr show the background
Sequence (P08631 whole entry, looked up): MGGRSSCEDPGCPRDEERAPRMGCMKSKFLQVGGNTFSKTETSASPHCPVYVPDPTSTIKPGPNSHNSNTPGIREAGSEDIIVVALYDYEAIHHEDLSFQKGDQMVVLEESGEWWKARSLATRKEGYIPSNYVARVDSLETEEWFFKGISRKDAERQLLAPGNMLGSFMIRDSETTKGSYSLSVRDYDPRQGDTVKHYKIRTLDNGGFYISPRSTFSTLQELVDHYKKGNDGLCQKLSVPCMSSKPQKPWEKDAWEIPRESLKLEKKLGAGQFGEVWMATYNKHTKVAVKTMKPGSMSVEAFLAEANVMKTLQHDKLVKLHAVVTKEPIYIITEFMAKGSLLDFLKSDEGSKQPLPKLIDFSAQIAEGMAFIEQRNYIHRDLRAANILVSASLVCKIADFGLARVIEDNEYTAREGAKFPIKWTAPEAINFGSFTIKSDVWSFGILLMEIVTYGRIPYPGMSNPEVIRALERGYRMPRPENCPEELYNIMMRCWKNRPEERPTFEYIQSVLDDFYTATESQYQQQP
Measured phosphorylation enrichment values are reported for all entries that follow.
Please state the value as a number alone, without comment.

Example sequences with recorded phosphorylation enrichment:
macromolecule-sequence	system-name	phosphorylation enrichment
DRLAVYIDRVR [LMNA_Y45]	Hck (UniProt P08631)	0.434
IDPFIYTPFGS [CYP3A4_Y432_YF]	Hck (UniProt P08631)	5.82
TISPFYRQSLF [CRYAA_Y48_YF]	Hck (UniProt P08631)	0.396
CEETFYTMKVN [MASP2_Y401]	Hck (UniProt P08631)	0.756
KEIHAYRKLLE [LMNA_Y376_M371K]	Hck (UniProt P08631)	0.476

State its phosphorylation enrichment for this sequence: ELAINYQEQAS [SLC9A9_Y591] 0.643

Respond only with phosphorylation enrichment recorded for AGRTGYDNREI [BCL2_Y9] 0.367

Specify reported phosphorylation enrichment for the sequence shown: KLLLKYSFHDA [RNF213_Y4141_V4146A] 0.418

Specify measured phosphorylation enrichment for RQEEEYKRLSE [SFSWAP_Y133] . 0.888

Look up and state reported phosphorylation enrichment for QYKGKYLAKHN [CASK_Y712_D710G] 0.752

Please report phosphorylation enrichment for the following sequence: VREIRCQGGNR [VWF_Y1570_Y1570C] 0.465
